Molecular target: airway epithelial sodium currents (sodium channel) (UniProt A0A8I3MKE6+A0A8I3Q679+Q95165)
Experiment: Sodium channel blocking activity: inhibition of short circuit current (ISC) in airway epithelial monolayers mounted in Ussing chambers
Type: cell-based, human, dog, sheep or rodent
Conditions: Cyclic Pyrazinoylguanidines; relative potency for PSA 4022 = 100 using EC50 from PSA 4022 in same run
Counter-ions that a name gives are not always drawn.
Binary classification by Fold Amiloride** (PSA 4022 = 100), with 8 as an inclusive lower bound for Fulfilled; all other cases are Not fulfilled.

1. N=C(NCCCCC1CCN(CC(O)CO)CC1)NC(=O)c1nc(Cl)c(N)nc1N (centres unmarked) = Not fulfilled

Does the reported Fold Amiloride** (PSA 4022 = 100) for Cl.Cl.Cl.N=C(NCCCCC1CCN(CCN)CC1)NC(=O)c1nc(Cl)c(N)nc1N fall at or above the 8 mark?
Not fulfilled

Does the reported Fold Amiloride** (PSA 4022 = 100) for CC(C)(C)OC(=O)N=C(NCCCN1CCC(CCCCNC(=N)NC(=O)c2nc(Cl)c(N)nc2N)CC1)NC(=O)OC(C)(C)C fall at or above the 8 mark?
Fulfilled

Does the reported Fold Amiloride** (PSA 4022 = 100) for N=C(NCCCCC1CCN(CCCO)CC1)NC(=O)c1nc(Cl)c(N)nc1N [compound 25310, dihydrochloride] fall at or above the 8 mark?
Not fulfilled

Does the reported Fold Amiloride** (PSA 4022 = 100) for N=C(NCCCCC1CCN(CCCN)CC1)NC(=O)c1nc(Cl)c(N)nc1N [compound 25510, trihydrochloride] fall at or above the 8 mark?
Not fulfilled

Does the reported Fold Amiloride** (PSA 4022 = 100) for Cl.Cl.Cl.N=C(N)NCCCN1CCC(CCCCNC(=N)NC(=O)c2nc(Cl)c(N)nc2N)CC1 fall at or above the 8 mark?
Fulfilled

Origin of the recorded values: patent US20050090505A1
